Data provenance is ChEMBL document CHEMBL1153974.

experiment: Half life dog at 1 mg/kg, iv; type: ADME, organism-based, Canis lupus familiaris; design: dose 1 mg/kg, route intravenous; conditions: in vivo
measurement-kind: half-life (h)

> print(dat)
                         structure.notation  numeric.value
1  Cc1cc2ncc(C(=O)N3CCC([C@H](N)Cc4cc(F)c(F)cc4F)CC3)c(C)n2n1           3.71

---

test: Clearance in human plasma at 15 mg; assay type: ADME, organism-based
measurement-kind: clearance (mL/min/kg)

> print(dat)
                         structure.notation  numeric.value
1  Cc1cc2ncc(C(=O)N3CCC([C@H](N)Cc4cc(F)c(F)cc4F)CC3)c(C)n2n1            3.4

---

Record set of IC50 for target or system Dipeptidyl peptidase 4 (Homo sapiens, UniProt P27487).
measurement-kind: IC50

> print(dat)
                  structure.notation  measurement.kind   result
1      Fc1cc(F)c(C[C@@H]2CCCCN2)cc1F              IC50  > 30 µM
2  N[C@H](Cc1cc(F)c(F)cc1F)CC1CCCCC1              IC50  > 30 µM
3                 NCCc1cc(F)c(F)cc1F              IC50  > 30 µM

---

test: Half life in rat at 1 mg/kg, iv; assay type: ADME, organism-based; set-up: dose 1 mg/kg, route intravenous; conditions: in vivo
measurement-kind: half-life

> print(dat)
                         structure.notation  result
1  Cc1cc2ncc(C(=O)N3CCC([C@H](N)Cc4cc(F)c(F)cc4F)CC3)c(C)n2n1  5.09 h

---

assay: Volume of distribution at steady state in rat at 1 mg/kg, iv; format: ADME, organism-based; design: dose 1 mg/kg, route intravenous; conditions: in vivo, read-out: Vdss
measurement-kind: Vd (L/kg)

> print(dat)
                         structure.notation  measurement.kind  units  numeric.value
1  Cc1cc2ncc(C(=O)N3CCC([C@H](N)Cc4cc(F)c(F)cc4F)CC3)c(C)n2n1                Vd   L/kg            2.2

---

assay: Volume of distribution at steady state in dog at 1 mg/kg, iv; format: ADME, organism-based, Canis lupus familiaris; parameters: dose 1 mg/kg, route intravenous; details: in vivo, read-out: Vdss
measurement-kind: Vd (L/kg)

> print(dat)
                         structure.notation  numeric.value
1  Cc1cc2ncc(C(=O)N3CCC([C@H](N)Cc4cc(F)c(F)cc4F)CC3)c(C)n2n1            2.2

---

experiment: Bioavailability in rat at 1 mg/kg, iv and 5 mg/kg, po; assay type: ADME, organism-based; conditions: in vivo
measurement-kind: bioavailability (%)

> print(dat)
                         structure.notation  numeric.value
1  Cc1cc2ncc(C(=O)N3CCC([C@H](N)Cc4cc(F)c(F)cc4F)CC3)c(C)n2n1             70

---

This listing pairs compounds with measured IC50.
molecular target: UniProtKB Q12809; test: Inhibition of human ERG by patch-clamp assay
Sequence (Q12809 whole entry): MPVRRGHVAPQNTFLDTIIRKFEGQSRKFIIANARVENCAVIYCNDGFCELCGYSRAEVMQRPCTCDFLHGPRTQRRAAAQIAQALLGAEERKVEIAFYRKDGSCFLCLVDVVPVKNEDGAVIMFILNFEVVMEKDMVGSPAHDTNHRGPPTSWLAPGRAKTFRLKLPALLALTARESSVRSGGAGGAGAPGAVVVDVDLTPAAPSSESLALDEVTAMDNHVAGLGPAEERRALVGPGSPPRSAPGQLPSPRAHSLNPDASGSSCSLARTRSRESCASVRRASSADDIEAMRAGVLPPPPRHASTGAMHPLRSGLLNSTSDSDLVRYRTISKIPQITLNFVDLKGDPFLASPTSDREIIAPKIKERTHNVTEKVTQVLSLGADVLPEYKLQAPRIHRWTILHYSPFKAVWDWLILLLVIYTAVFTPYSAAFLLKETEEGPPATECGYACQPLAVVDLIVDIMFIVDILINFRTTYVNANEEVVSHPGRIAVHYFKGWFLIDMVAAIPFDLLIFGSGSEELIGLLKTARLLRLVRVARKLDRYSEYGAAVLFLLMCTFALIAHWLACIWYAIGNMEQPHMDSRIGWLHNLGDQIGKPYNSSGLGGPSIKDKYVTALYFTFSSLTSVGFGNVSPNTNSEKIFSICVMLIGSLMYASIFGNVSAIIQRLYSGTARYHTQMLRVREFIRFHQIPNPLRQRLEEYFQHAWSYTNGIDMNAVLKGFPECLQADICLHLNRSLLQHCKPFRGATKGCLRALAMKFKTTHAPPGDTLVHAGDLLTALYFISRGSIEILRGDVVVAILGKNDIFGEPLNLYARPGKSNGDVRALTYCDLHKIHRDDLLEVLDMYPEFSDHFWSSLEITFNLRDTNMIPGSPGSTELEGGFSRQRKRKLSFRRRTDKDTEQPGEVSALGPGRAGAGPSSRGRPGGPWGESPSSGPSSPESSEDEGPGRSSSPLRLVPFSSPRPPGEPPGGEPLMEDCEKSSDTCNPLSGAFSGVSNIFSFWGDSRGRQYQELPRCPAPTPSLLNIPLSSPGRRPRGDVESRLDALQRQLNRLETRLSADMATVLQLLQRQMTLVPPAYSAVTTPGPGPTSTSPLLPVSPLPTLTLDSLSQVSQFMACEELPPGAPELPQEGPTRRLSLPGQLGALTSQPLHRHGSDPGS
measurement-kind: IC50 (µM)

> print(dat)
                         structure.notation      assay.system  measurement.kind  numeric.value
1  Cc1ncc(C)c(C(=O)N2CCC([C@H](N)Cc3cc(F)c(F)cc3F)CC2)n1  UniProtKB Q12809              IC50             85
2  Cc1nccnc1C(=O)N1CCC([C@H](N)Cc2cc(F)c(F)cc2F)CC1  UniProtKB Q12809              IC50             55
